Reference for the values: patent US11332468B2

# Ki measurements, system: Rho kinase 1 (ROCK1) (Homo sapiens, UniProt Q13464)
# Sequence (Q13464 whole entry): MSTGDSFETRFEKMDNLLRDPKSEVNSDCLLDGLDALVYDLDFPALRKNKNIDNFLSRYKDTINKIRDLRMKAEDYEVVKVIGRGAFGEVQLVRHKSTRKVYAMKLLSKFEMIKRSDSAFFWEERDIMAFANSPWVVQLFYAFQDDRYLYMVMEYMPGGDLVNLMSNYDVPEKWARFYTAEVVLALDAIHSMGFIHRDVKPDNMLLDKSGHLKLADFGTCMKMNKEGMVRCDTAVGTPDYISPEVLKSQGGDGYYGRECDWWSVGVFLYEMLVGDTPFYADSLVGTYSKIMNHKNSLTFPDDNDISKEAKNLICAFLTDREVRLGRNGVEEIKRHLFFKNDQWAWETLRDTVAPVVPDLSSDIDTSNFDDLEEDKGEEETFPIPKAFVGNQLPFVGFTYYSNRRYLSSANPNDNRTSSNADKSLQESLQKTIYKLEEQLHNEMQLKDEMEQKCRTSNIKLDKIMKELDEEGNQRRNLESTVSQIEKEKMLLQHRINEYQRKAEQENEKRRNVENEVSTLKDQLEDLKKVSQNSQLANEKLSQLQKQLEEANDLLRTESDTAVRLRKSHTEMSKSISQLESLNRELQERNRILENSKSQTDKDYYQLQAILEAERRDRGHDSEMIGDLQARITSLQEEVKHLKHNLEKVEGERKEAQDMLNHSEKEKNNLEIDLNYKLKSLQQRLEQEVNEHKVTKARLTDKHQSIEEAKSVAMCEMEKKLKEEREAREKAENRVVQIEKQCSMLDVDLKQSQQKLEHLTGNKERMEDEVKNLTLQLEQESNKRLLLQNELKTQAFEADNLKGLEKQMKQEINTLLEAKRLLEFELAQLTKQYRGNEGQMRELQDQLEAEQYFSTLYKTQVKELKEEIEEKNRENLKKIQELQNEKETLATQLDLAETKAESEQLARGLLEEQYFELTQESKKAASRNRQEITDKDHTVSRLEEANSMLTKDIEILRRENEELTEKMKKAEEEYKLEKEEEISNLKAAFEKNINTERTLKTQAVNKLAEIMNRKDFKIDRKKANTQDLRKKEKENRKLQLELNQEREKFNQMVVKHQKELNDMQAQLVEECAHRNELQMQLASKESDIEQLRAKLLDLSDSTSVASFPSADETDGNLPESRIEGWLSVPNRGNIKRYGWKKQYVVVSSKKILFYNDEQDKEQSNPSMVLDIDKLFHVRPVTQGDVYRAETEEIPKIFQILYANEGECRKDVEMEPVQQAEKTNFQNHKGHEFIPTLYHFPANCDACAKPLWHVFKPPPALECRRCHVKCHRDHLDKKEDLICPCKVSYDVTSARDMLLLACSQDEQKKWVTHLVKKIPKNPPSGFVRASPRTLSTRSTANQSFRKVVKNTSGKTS

Quote Ki with test system Rho kinase 1 (ROCK1) (Homo sapiens, UniProt Q13464) for Cc1c[nH]c2nccc(Oc3ccc(C(N)CO)cc3)c12 (stereo not shown)
5 to 50 nM

Quote Ki with test system Rho kinase 1 (ROCK1) (Homo sapiens, UniProt Q13464) for NCc1cc(F)c(Oc2ccnc3[nH]ccc23)c(F)c1
5 to 50 nM

Quote Ki with test system Rho kinase 1 (ROCK1) (Homo sapiens, UniProt Q13464) for NCCc1ccc(Oc2ccnc3[nH]ccc23)cc1
5 to 50 nM

###

# Ki measurements, system: Rho kinase 1 (ROCK1) (Homo sapiens, UniProt Q13464)

Cc1c[nH]c2nccc(Oc3ccc(CNCCO)cc3)c12 | 5 to 50 nM

Quote Ki with test system Rho kinase 1 (ROCK1) (Homo sapiens, UniProt Q13464) for Cc1c[nH]c2ncnc(Oc3ccc(C4CCNC4)cc3)c12 (stereo not drawn)
> 50 nM

Quote Ki with test system Rho kinase 1 (ROCK1) (Homo sapiens, UniProt Q13464) for Cc1c[nH]c2nccc(Oc3ccc4c(c3)CCNCC4)c12
< 5 nM

###

Measured Ki, listed per entry for reference.
Target: Rho kinase 1 (ROCK1) (Homo sapiens, UniProt Q13464)

Consider the following illustrative entries.
Cc1c[nH]c2ncnc(Oc3ccc(CN)cc3)c12 | > 50 nM
Cc1c[nH]c2nccc(Oc3ccc(C4CCCN4)cc3)c12 (racemic) [Example 18] | 5 to 50 nM
Cc1c[nH]c2nccc(Oc3ccc4c(c3)CN(C)CC4)c12 | < 5 nM
Cc1c[nH]c2nccc(Oc3ccc4c(c3)CCCNC4)c12 | 5 to 50 nM
Cc1c[nH]c2nccc(Oc3ccc(C(C)(C)N)cc3)c12 | 5 to 50 nM

Now take the following compound into account.
Quote Ki with test system Rho kinase 1 (ROCK1) (Homo sapiens, UniProt Q13464) for Cc1c[nH]c2nccc(Oc3ccc(C(C)N)cc3F)c12 (stereo not shown)
< 5 nM

###

Biological target: Rho kinase 2 (ROCK2) (Homo sapiens, UniProt O75116)
Sequence (O75116 whole entry): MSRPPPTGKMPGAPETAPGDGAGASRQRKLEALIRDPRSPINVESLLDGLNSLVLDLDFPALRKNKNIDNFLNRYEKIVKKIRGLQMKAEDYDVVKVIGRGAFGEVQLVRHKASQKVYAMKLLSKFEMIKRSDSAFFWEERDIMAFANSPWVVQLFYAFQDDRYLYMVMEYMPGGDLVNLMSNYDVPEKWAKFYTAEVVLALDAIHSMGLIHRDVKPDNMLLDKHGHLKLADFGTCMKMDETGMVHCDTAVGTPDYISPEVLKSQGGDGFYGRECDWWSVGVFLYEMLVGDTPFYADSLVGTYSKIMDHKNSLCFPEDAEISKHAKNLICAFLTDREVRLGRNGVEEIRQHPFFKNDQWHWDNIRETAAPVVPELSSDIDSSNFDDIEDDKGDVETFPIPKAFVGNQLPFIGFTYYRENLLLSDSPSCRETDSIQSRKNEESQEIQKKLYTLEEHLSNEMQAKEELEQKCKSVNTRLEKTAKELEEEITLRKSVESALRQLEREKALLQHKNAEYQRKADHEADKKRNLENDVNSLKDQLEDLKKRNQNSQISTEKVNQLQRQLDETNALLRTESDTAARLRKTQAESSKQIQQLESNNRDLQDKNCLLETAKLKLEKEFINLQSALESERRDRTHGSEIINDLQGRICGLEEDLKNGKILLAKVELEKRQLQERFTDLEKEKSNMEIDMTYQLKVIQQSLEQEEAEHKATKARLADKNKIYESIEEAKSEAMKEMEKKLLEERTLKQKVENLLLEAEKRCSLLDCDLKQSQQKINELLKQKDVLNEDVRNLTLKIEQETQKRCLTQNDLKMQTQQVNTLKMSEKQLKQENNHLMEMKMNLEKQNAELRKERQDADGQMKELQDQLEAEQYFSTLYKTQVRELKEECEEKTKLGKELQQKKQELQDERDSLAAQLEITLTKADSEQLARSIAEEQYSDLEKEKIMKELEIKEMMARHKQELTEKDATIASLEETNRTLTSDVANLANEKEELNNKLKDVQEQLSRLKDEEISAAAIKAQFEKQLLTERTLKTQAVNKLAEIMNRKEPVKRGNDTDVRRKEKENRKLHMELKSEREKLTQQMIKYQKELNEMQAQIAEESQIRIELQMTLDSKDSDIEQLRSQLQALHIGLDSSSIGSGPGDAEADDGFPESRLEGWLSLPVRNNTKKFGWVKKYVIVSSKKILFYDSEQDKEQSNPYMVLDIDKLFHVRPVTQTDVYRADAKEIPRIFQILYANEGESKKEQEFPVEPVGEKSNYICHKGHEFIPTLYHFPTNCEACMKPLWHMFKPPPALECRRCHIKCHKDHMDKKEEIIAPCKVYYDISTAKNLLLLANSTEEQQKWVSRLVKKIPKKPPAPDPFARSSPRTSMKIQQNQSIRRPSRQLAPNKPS
Metric: Ki

Consider the following illustrative entries.
NCCc1ccc(Oc2ccnc3[nH]ccc23)cc1 | 5 to 50 nM
Cc1c[nH]c2nccc(Oc3ccc4c(c3)CCCNC4)c12 | 5 to 50 nM
Cc1c[nH]c2nccc(Oc3ccc(CN4CCN(C)CC4)cc3)c12 | 5 to 50 nM

Provide measured Ki value, entry: Cc1c[nH]c2nccc(Oc3ccc(C4CCCN4)cc3)c12 (racemic) [Example 18]
5 to 50 nM

Provide measured Ki value, entry: Cc1c[nH]c2nccc(Oc3ccc(C[C@H](N)CO)cc3)c12
< 5 nM

Provide measured Ki value, entry: Cc1c[nH]c2nccc(Oc3ccc4c(c3)CN(C)CC4)c12
< 5 nM

Provide measured Ki value, entry: Cc1c[nH]c2nccc(Oc3ccc4c(c3)CC(N)C4)c12 (stereo not shown)
< 5 nM

Provide measured Ki value, entry: Cc1c[nH]c2nccc(Oc3ccc(C4CCNC4)cc3)c12 (stereo not shown)
< 5 nM

Provide measured Ki value, entry: Cc1c[nH]c2nccc(Oc3ccc(C4CCCN4)cc3)c12 (single isomer, unassigned) [Example 18B]
5 to 50 nM

Provide measured Ki value, entry: Cc1c[nH]c2ncnc(Oc3ccc(CN)cc3)c12
> 50 nM

###

Measured Ki, listed per entry for reference.
Target: Rho kinase 1 (ROCK1) (Homo sapiens, UniProt Q13464)
Test: In vitro Rho kinase inhibitory activity assay (ADP-Glo), ROCK1
Type: biochemical
Settings: Ki by Cheng-Prusoff from IC50; 10 μM ATP; range of activity

Consider the following illustrative entries.
Cc1c[nH]c2ncnc(Oc3ccc4c(c3)CNCC4)c12 | 5 to 50 nM
Cc1c[nH]c2nccc(Oc3ccc(CN(C)C)cc3)c12 | 5 to 50 nM
Cc1c[nH]c2nccc(Oc3ccc4c(c3)CN[C@@H](CO)C4)c12 | < 5 nM
Cc1c[nH]c2nccc(Oc3ccc(C4CNCCN4)cc3)c12 (stereo not shown) | 5 to 50 nM
Cc1c[nH]c2nccc(Oc3ccc(C4CCCN4)cc3)c12 (single isomer, unassigned) [Example 18A] | 5 to 50 nM
Cc1c[nH]c2nccc(Oc3ccc4c(c3)CNCC4)c12 | < 5 nM

Now take the following compound into account.
Provide measured Ki value, entry: Cc1c[nH]c2nccc(Oc3ccc4c(c3)CC(N)C4)c12 (stereo not shown)
5 to 50 nM

###

Measured pKi, listed per entry for reference.
Biological target: Rho kinase 1 (ROCK1) (Homo sapiens, UniProt Q13464)
pKi: −log10 of the molar value.

Consider the following illustrative entries.
Cc1c[nH]c2nccc(Oc3ccc4c(c3)CCNC4)c12 [Example 11] | 7.30 to 8.30
Cc1c[nH]c2nccc(Oc3ccc(CN)cc3F)c12 [Example 12] | > 8.30
N#Cc1c[nH]c2nccc(Oc3ccc4c(c3)CNCC4)c12 [Example 34] | > 8.30

Now take the following molecule into account.
Quote pKi with test system Rho kinase 1 (ROCK1) (Homo sapiens, UniProt Q13464) for Cc1c[nH]c2nccc(Oc3ccc(CNC4CCN(C)CC4)cc3)c12 [Example 30]
7.30 to 8.30

###

Target: Rho kinase 2 (ROCK2) (Homo sapiens)
pKi: −log10 of the molar value.
Measured pKi, listed per entry for reference.

Quote pKi with test system Rho kinase 2 (ROCK2) (Homo sapiens) for Cc1c[nH]c2nccc(Oc3ccc(C4CNC4)cc3)c12
> 8.30

Quote pKi with test system Rho kinase 2 (ROCK2) (Homo sapiens) for Cc1c[nH]c2nccc(Oc3ccc4c(c3)CCNCC4)c12
> 8.30

Quote pKi with test system Rho kinase 2 (ROCK2) (Homo sapiens) for Cc1c[nH]c2nccc(Oc3ccc4c(c3)CCNC4)c12
7.30 to 8.30

Quote pKi with test system Rho kinase 2 (ROCK2) (Homo sapiens) for NCc1cc(F)c(Oc2ccnc3[nH]ccc23)c(F)c1
> 8.30

Quote pKi with test system Rho kinase 2 (ROCK2) (Homo sapiens) for Cc1c[nH]c2nccc(Oc3ccc(CNCCO)cc3)c12
7.30 to 8.30

Quote pKi with test system Rho kinase 2 (ROCK2) (Homo sapiens) for Cc1c[nH]c2ncnc(Oc3ccc(C4CCNC4)cc3)c12 (stereo not drawn)
< 7.30

Quote pKi with test system Rho kinase 2 (ROCK2) (Homo sapiens) for Cc1c[nH]c2ncnc(Oc3ccc4c(c3)CNCC4)c12
7.30 to 8.30

Quote pKi with test system Rho kinase 2 (ROCK2) (Homo sapiens) for Cc1c[nH]c2nccc(Oc3ccc4c(c3)CNCC4)c12
> 8.30

Quote pKi with test system Rho kinase 2 (ROCK2) (Homo sapiens) for Cc1c[nH]c2nccc(Oc3ccc(C4CCCN4)cc3)c12 (single isomer, unassigned) [Example 18A]
> 8.30
